Listed below: IC50 values for each entry.
Target: histone deacetylase (HDAC Enzyme)
Experiment: Inhibition of Histone Deacetylase Enzymatic Activity (Boc-Lys(Ac)-AMC, Fluor-de-Lys developer)
Type: biochemical
Conditions: read-out: HDAC Inhibtion (IC50 μM) HDAC Enzyme

substance_smiles | subject_of_test | IC50
CCN1c2ccccc2N=C(c2ccc(C(=O)NO)cc2)c2cccnc21 | histone deacetylase (HDAC Enzyme) | < 0.05 µM
N#Cc1ccc2c(c1)Oc1ccccc1C(c1ccc(C(=O)NO)cc1)=N2 | histone deacetylase (HDAC Enzyme) | < 0.05 µM
O=C(NO)c1cccc(C2=Nc3ccccc3Oc3ccccc32)c1 | histone deacetylase (HDAC Enzyme) | 0.1 to 1 µM
O=C(NO)c1ccc(C2=Nc3ccccc3Nc3ccccc32)cc1 | histone deacetylase (HDAC Enzyme) | 0.1 to 1 µM
O=C(NO)c1ccc(C2=Nc3cc(C(F)(F)F)ccc3Oc3ccccc32)cc1 | histone deacetylase (HDAC Enzyme) | 0.1 to 1 µM
COCCN1c2ccccc2N=C(c2ccc(C(=O)NO)cc2)c2ccccc21 | histone deacetylase (HDAC Enzyme) | 0.1 to 1 µM
O=C(NO)c1ccc(C2=Nc3ccccc3Oc3ccccc32)o1 | histone deacetylase (HDAC Enzyme) | 1 to 10 µM
COCCOc1cccc2c1Oc1ccccc1N=C2c1ccc(C(=O)NO)cc1 | histone deacetylase (HDAC Enzyme) | < 0.05 µM
O=C(NO)c1ccc(C2=Nc3ccccc3Oc3c[n+]([O-])ccc32)cc1 | histone deacetylase (HDAC Enzyme) | 0.1 to 1 µM
CSc1cccc2c1Oc1ccccc1N=C2c1ccc(C(=O)NO)cc1 | histone deacetylase (HDAC Enzyme) | < 0.05 µM
O=C(NO)c1ccc(C2=Nc3ccccc3Oc3cc(N4CCOCC4)ccc32)cc1 | histone deacetylase (HDAC Enzyme) | 0.1 to 1 µM
